The reader will find IC50 measurements below, all made with Wee1-like protein kinase (Homo sapiens).
Just the number in nM, nothing appended.

entry-smiles | unit-abbrev | IC50
N#CCCCn1c2ccc(O)cc2c2c3c(c(-c4ccccc4Cl)cc21)C(=O)NC3=O | nM | 33
CN1CCN(CCCn2c3ccc(O)cc3c3c4c(c(-c5ccccc5Cl)cc32)C(=O)NC4=O)CC1 | nM | 82
O=C(O)CCn1c2ccc(O)cc2c2c3c(c(-c4c(Cl)cccc4Cl)cc21)C(=O)NC3=O | nM | 390
O=C1NC(=O)c2c1c(-c1ccccc1)cc1c2c2cc(O)ccc2n1CCN1CCOCC1 | nM | 140
CN(C)CCCn1c2ccc(O)cc2c2c3c(c(-c4ccccc4Cl)cc21)C(=O)NC3=O | nM | 100
CS(=O)(=O)NC(=O)CCn1c2ccc(O)cc2c2c3c(c(-c4ccccc4Cl)cc21)C(=O)NC3=O | nM | 12

Request: State its IC50 on Wee1-like protein kinase (Homo sapiens): "O=C1NC(=O)c2c1c(-c1ccccc1Cl)cc1c2c2cc(O)ccc2n1CCCNc1ccccc1"
Result: 74

Request: Short answer please: IC50, Wee1-like protein kinase (Homo sapiens), entry "O=C1NC(=O)c2c1c(-c1ccccc1Cl)cc1c2c2cc(O)ccc2n1CCn1ccnc1"
Result: 92

* * *

assay-method-text: physchem
particulars: buffer
Description: Aqueous solubility of the compound
Entries and their log10(solubility) values follow.
Hi team, quick reminder: these entries are log10 of solubility (µg/mL).

entry-smiles | log10(solubility)
O=C(O)CCn1c2ccc(O)cc2c2c3c(c(-c4c(Cl)cccc4Cl)cc21)C(=O)NC3=O | 1.52
O=C1NC(=O)c2c1c(-c1ccccc1)cc1c2c2cc(O)ccc2n1CCN1CCOCC1 | 1.15
O=C1NC(=O)c2c1c(-c1c(Cl)cccc1Cl)cc1c2c2cc(O)ccc2n1CCCn1ccnc1 | 0.51
O=C1NC(=O)c2c1c(-c1ccccc1Cl)cc1c2c2cc(O)ccc2n1CCSc1nnc[nH]1 | 0.48
CN(C)CCn1c2ccc(O)cc2c2c3c(c(-c4c(Cl)cccc4Cl)cc21)C(=O)NC3=O | 0.87
CNCCCn1c2ccc(O)cc2c2c3c(c(-c4ccccc4Cl)cc21)C(=O)NC3=O | 0.72
CN(C)CCn1c2ccc(O)cc2c2c3c(c(-c4ccccc4)cc21)C(=O)NC3=O | 1.26

Switching to the query record.
Request: Need log10(solubility) of "CNCCCn1c2ccc(O)cc2c2c3c(c(-c4c(Cl)cccc4Cl)cc21)C(=O)NC3=O" , thanks.
Result: 0.86

* * *

assay-target: Cyclin-dependent kinase 1 (Homo sapiens, UniProt P06493)
Sequence (P06493 whole entry): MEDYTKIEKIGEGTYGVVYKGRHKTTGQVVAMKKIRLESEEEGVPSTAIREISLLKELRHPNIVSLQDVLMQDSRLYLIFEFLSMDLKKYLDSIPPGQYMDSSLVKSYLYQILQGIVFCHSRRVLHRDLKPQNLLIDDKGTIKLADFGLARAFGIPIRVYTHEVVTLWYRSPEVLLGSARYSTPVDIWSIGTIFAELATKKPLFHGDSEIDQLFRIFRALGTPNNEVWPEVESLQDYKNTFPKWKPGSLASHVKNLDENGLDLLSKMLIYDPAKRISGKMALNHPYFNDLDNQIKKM
particulars: ht-29
Description: Inhibition of Cdc2 Tyr15 phosphorylation in human HT29 cells by Western blot
Property: pIC50; scope: individual compounds
Quick note: pIC50 means taking -log10 of the concentration in moles per liter.

These recorded examples may help you get a feel for the data.
compound | pIC50
O=C1NC(=O)c2c1c(-c1ccccc1Cl)cc1c2c2cc(O)ccc2n1CCc1nnn[nH]1 | 5.60
CN(C)CC(O)Cn1c2ccc(O)cc2c2c3c(c(-c4ccccc4Cl)cc21)C(=O)NC3=O (stereo not given) | 6.60
CS(=O)(=O)NC(=O)CCn1c2ccc(O)cc2c2c3c(c(-c4ccccc4Cl)cc21)C(=O)NC3=O | 6.60

Request: Tell me reported pIC50 for "O=C1NC(=O)c2c1c(-c1ccccc1Cl)cc1c2c2cc(O)ccc2n1CCN1CCOCC1" , tested with Cyclin-dependent kinase 1 (Homo sapiens, UniProt P06493).
Result: 6.60

* * *

Entries below carry reported pIC50 on Wee1-like protein kinase (Homo sapiens, UniProt P30291).
Sequence (P30291 whole entry): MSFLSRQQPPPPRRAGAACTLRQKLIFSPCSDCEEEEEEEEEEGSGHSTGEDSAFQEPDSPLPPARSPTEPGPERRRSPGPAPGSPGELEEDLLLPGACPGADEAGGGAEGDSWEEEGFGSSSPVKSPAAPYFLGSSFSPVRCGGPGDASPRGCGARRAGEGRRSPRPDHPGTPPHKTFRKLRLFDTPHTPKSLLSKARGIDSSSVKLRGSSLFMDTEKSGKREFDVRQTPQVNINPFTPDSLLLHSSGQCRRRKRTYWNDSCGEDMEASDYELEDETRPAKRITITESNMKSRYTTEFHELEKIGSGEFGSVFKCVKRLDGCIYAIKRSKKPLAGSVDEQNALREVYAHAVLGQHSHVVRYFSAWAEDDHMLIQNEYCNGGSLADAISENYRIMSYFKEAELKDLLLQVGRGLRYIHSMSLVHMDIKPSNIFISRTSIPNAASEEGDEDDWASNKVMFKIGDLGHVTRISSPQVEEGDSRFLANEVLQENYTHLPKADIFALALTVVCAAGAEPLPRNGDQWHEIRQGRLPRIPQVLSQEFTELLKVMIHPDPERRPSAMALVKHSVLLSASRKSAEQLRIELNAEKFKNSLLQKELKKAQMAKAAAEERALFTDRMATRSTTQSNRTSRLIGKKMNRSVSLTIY
Expect pIC50 as a plain number equal to -log10 of the molar concentration.

entry-smiles | pIC50
CN(C)CCn1c2ccc(O)cc2c2c3c(c(-c4c(Cl)cccc4Cl)cc21)C(=O)NC3=O | 6.77
O=C1NC(=O)c2c1c(-c1ccccc1Cl)cc1c2c2cc(O)ccc2n1CCO | 7.35
O=C1NC(=O)c2c1c(-c1ccccc1)cc1c2c2cc(O)ccc2n1CCCO | 6.70
CN(C)CCNC(=O)CCn1c2ccc(O)cc2c2c3c(c(-c4ccccc4Cl)cc21)C(=O)NC3=O | 7.46
O=C1NC(=O)c2c1c(-c1c(Cl)cccc1Cl)cc1c2c2cc(O)ccc2n1CCCNc1ccccc1 | 7.17
O=C1NC(=O)c2c1c(-c1c(Cl)cccc1Cl)cc1c2c2cc(O)ccc2n1CCCn1ccnc1 | 7.23
CN(C)CCCn1c2ccc(O)cc2c2c3c(c(-c4c(Cl)cccc4Cl)cc21)C(=O)NC3=O | 6.85
NC(=O)CCn1c2ccc(O)cc2c2c3c(c(-c4c(Cl)cccc4Cl)cc21)C(=O)NC3=O | 6.48
O=C1NC(=O)c2c1c(-c1ccccc1Cl)cc1c2c2cc(O)ccc2n1CCCn1ccnc1 | 7.27
O=C1NC(=O)c2c1c(-c1c(Cl)cccc1Cl)cc1c2c2cc(O)ccc2n1CCCN1CCOCC1 | 7.19

Request: Data request, read-out pIC50, for "CNCCCn1c2ccc(O)cc2c2c3c(c(-c4ccccc4Cl)cc21)C(=O)NC3=O"
Result: 7.16

* * *

A set of compounds tested on Proto-oncogene tyrosine-protein kinase Src (Homo sapiens, UniProt P12931), with measured IC50:
I only need the number, in µM, no unit after it.

entry-smiles | experimental-endpoint | measured-value
O=C1NC(=O)c2c1c(-c1ccccc1)cc1c2c2cc(O)ccc2n1CCCN1CCOCC1 | IC50 | 46

// moving on: another record for IC50
Request: Query for Proto-oncogene tyrosine-protein kinase Src (Homo sapiens, UniProt P12931): what IC50 does the record show for "CN1CCN(CCCn2c3ccc(O)cc3c3c4c(c(-c5ccccc5)cc32)C(=O)NC4=O)CC1" ?
Result: 17

* * *

Measured IC50 (Cyclin-dependent kinase 1/cyclin B1 (Homo sapiens, UniProt P06493))

molecule | assay-target | IC50
CS(=O)(=O)NC(=O)CCn1c2ccc(O)cc2c2c3c(c(-c4ccccc4Cl)cc21)C(=O)NC3=O | Cyclin-dependent kinase 1/cyclin B1 (Homo sapiens, UniProt P06493) | > 3400 nM

Request: IC50 for "NC(=O)CCn1c2ccc(O)cc2c2c3c(c(-c4ccccc4Cl)cc21)C(=O)NC3=O" ?
Result: > 3400 nM

Request: IC50 lookup needed for CN(C)CC(O)Cn1c2ccc(O)cc2c2c3c(c(-c4ccccc4Cl)cc21)C(=O)NC3=O (stereo unspecified) , thanks.
Result: > 3400 nM

Request: Which IC50 value belongs to "N#CCCn1c2ccc(O)cc2c2c3c(c(-c4ccccc4Cl)cc21)C(=O)NC3=O" ?
Result: > 3400 nM

Request: Any idea what its IC50 is? The molecule is "CNCCCn1c2ccc(O)cc2c2c3c(c(-c4ccccc4Cl)cc21)C(=O)NC3=O"
Result: 710 nM

Request: Look at this molecule and give its reported IC50. "O=C1NC(=O)c2c1c(-c1ccccc1Cl)cc1c2c2cc(O)ccc2n1CCN1CCOCC1"
Result: 1700 nM

Request: Can you share its IC50? I mean this molecule: "O=C1NC(=O)c2c1c(-c1ccccc1Cl)cc1c2c2cc(O)ccc2n1CCc1nnn[nH]1"
Result: > 3400 nM

Request: So what does the record say about IC50 for "CN(C)CCNC(=O)CCn1c2ccc(O)cc2c2c3c(c(-c4ccccc4Cl)cc21)C(=O)NC3=O" ?
Result: 1300 nM

Request: Give its IC50 value. Item: "O=C(O)CCCn1c2ccc(O)cc2c2c3c(c(-c4ccccc4Cl)cc21)C(=O)NC3=O"
Result: > 3400 nM

Request: Name the recorded IC50 for "O=C1NC(=O)c2c1c(-c1ccccc1Cl)cc1c2c2cc(O)ccc2n1CCCO" .
Result: 650 nM

Request: Report IC50 for "O=C1NC(=O)c2c1c(-c1ccccc1Cl)cc1c2c2cc(O)ccc2n1CCCc1nnn[nH]1" please.
Result: > 3400 nM

* * *

Catalogue of solubility readings, one per entry.
assay-method-text: physchem
particulars: buffer

Below are worked cases with known answers.
entry-smiles | measured-value
O=C1NC(=O)c2c1c(-c1ccccc1)cc1c2c2cc(O)ccc2n1CCCn1ccnc1 | < 3 µg/mL
NC(=O)CCn1c2ccc(O)cc2c2c3c(c(-c4ccccc4)cc21)C(=O)NC3=O | < 3 µg/mL
CN(C)CCNC(=O)CCn1c2ccc(O)cc2c2c3c(c(-c4c(Cl)cccc4Cl)cc21)C(=O)NC3=O | > 60 µg/mL
O=C1NC(=O)c2c1c(-c1ccccc1Cl)cc1c2c2cc(O)ccc2n1CCCc1nnn[nH]1 | > 60 µg/mL
O=C1NC(=O)c2c1c(-c1ccccc1)cc1c2c2cc(O)ccc2n1CCCN1CCOCC1 | < 3 µg/mL

Request: Reported solubility, compound "N#CCCn1c2ccc(O)cc2c2c3c(c(-c4ccccc4Cl)cc21)C(=O)NC3=O" : ____
Result: < 3 µg/mL

* * *

assay-target: Cyclin-dependent kinase 1 (Homo sapiens, UniProt P06493)
particulars: ht-29
experimental-endpoint: IC50

Observe how each entry below is paired with its result.
entry-smiles | IC50
CNCCCn1c2ccc(O)cc2c2c3c(c(-c4ccccc4Cl)cc21)C(=O)NC3=O | < 0.25 µM
O=C1NC(=O)c2c1c(-c1ccccc1Cl)cc1c2c2cc(O)ccc2n1CCCc1nnn[nH]1 | > 10 µM
CN(C)CCNC(=O)CCn1c2ccc(O)cc2c2c3c(c(-c4ccccc4Cl)cc21)C(=O)NC3=O | < 0.25 µM

Request: Record lookup: for Cyclin-dependent kinase 1 (Homo sapiens, UniProt P06493), what IC50 belongs to "NC(=O)CCn1c2ccc(O)cc2c2c3c(c(-c4ccccc4Cl)cc21)C(=O)NC3=O" ?
Result: > 10 µM

Request: Recall the recorded IC50 for "N#CCCn1c2ccc(O)cc2c2c3c(c(-c4ccccc4Cl)cc21)C(=O)NC3=O" with Cyclin-dependent kinase 1 (Homo sapiens, UniProt P06493) and state it.
Result: < 0.25 µM

Request: Hello, I am looking for reported IC50 with Cyclin-dependent kinase 1 (Homo sapiens, UniProt P06493) for "O=C(O)CCCn1c2ccc(O)cc2c2c3c(c(-c4ccccc4Cl)cc21)C(=O)NC3=O" . Could you help?
Result: > 10 µM
